Tested on: NCI-H2405
test.method.notes: relative viability (nuclei count vs DMSO), 5 days (fraction); higher = more cells survive
condition.label: first compound 0.8 µM
Can you tell me relative viability for the items I'm about to list?

molecule | study.target | relative viability
Cc1cnc(-c2cnc(NCCNc3ccc(C#N)cn3)nc2-c2ccc(Cl)cc2Cl)[nH]1 + CS(=O)(=O)N1CCN(Cc2cc3nc(-c4cccc5[nH]ncc45)nc(N4CCOCC4)c3s2)CC1 [Pictilisib] (partner 1 µM) | NCI-H2405 | 0.422

Let us examine a further case.
relative viability reading for O=c1[nH]c2ccccc2n1C1CCN(CCCC(c2ccc(F)cc2)c2ccc(F)cc2)CC1 [Pimozide] + CC(C)C[C@H](NC(=O)[C@H](Cc1ccccc1)NC(=O)c1cnccn1)B(O)O [Bortezomib] (partner 0.002 µM) : 0.979
